# studyTarget: T1, cynomolgus SIRP-α D1 domain (cyno2) (cynomolgus monkey, UniProt Q5TFQ8 30-148 (human entry), limits assumed)
# T1 chain: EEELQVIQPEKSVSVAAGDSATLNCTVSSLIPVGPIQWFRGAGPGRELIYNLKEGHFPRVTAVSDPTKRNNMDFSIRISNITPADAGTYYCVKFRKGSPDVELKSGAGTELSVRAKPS
# assayNotes: SPR, Langmuir fit
quantityKind: koff

Data request, read-out koff, for S21 (scFv, V domains shown, also called clone 21; scFv-Fc form of AB21) VH: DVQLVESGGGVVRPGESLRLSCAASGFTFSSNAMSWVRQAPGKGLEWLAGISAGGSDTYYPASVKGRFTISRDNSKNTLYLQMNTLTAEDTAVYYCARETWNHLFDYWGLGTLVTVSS VL: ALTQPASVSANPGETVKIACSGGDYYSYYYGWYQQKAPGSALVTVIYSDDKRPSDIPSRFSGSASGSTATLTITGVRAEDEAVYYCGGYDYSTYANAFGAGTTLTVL 0.000252 s⁻¹

Data request, read-out koff, for S3 (scFv, V domains shown, also called clone 3; scFv-Fc form of AB3) VH: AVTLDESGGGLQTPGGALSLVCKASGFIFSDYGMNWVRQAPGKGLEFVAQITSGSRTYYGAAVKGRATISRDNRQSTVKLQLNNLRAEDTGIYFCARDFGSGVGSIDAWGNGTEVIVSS VL: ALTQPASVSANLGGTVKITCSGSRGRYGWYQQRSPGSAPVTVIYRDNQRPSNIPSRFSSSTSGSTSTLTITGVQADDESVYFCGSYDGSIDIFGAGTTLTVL 0.00174 s⁻¹

Data request, read-out koff, for S73 (scFv, V domains shown, also called clone 73) VH: DVQLVESGGGVVRPGESLRLSCEASGFTFSSNAMSWARQAPGKGLEWVAGISSGSDTYYGDSVKGRLTISRDNSKNILYLQMNSLTAEDTAVYYCARETWNHLFDYWGLGTLVTVSS VL: ALTQPASVSANPGETVKITCSGGIYSSYYYAWYQQKSPGSAPVTLIYSDDKRPSNIPSRFSGSASGSTATLTITGVRAEDEAVYFCGGYDQSSYTNPFGAGTTLTVL 0.000119 s⁻¹
